# System: c-Abl kinase domain (Mus musculus, UniProt P00520)
# Sequence (P00520 242-493 limits assumed): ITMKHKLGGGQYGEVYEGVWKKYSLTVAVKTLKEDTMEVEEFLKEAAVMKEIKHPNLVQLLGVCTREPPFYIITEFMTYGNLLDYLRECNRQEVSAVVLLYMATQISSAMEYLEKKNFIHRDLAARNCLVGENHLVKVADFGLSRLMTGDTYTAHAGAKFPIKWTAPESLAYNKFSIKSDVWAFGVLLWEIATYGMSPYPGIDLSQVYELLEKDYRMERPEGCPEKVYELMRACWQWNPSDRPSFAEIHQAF
# Procedure text: pTyr-Var library bacterial peptide display kinase screen (enrichment scores);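 note: log2 fold change in enrichment of variant over reference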
# Type: biochemical
# Cond: fig5-data2, sheet "Abl"; Screen for the variant/reference peptide pair, pTyr-Var library
Can you tell me Screen for the items I'm about to list?
One number for each entry.

Example results:
QFKGKYLAKHN [CASK_Y712_D710G_YF]; 0.5412
RLLVVYTWTQR [HBB_Y36_P37T]; 0.544
FKGIVYSVSSD [DCX_Y70_A71S]; -0.3809
VRFMAYTDETC [F8_Y450_F455C]; 1.283

List reported Screen for each of these sequences:
1. STTSDYQWDFS [MTDH_Y364_V368F]
2. TEALFYTDDPA [ADPRS_Y75_T79P_YF]
3. LWKWRYEELKE [CCDC102B_Y299_K298R]
4. NCLRVYVAGRF [CRB1_Y711_E710V]

1: -0.6152; 2: 1.901; 3: 0.5114; 4: -0.2235

List reported Screen for each of these sequences:
1. PQIVNYSPDCI [LDHB_Y128_K127N]
2. PVQAAYQKVEA [HBB_Y131_V135E]
3. DRLTVYIDRVR [LMNA_Y45_A43T]
4. FDNPIYQKTTE [LDLR_Y828_V827I]
5. TLLAFYMGNFS [GLB1_Y552_P549L]
6. VPHECYAKVFD [ALB_Y394_D389V]

1. -0.6074
2. -0.9436
3. -0.2946
4. 2.749
5. -0.5504
6. 0.9527
